The measurements presented in this section are drawn from patent US20260242735A1.

# target_desc: human CD33 S102A (human, UniProt P20138 18-364)
# Sequence (P20138 18-364 S102A limits assumed): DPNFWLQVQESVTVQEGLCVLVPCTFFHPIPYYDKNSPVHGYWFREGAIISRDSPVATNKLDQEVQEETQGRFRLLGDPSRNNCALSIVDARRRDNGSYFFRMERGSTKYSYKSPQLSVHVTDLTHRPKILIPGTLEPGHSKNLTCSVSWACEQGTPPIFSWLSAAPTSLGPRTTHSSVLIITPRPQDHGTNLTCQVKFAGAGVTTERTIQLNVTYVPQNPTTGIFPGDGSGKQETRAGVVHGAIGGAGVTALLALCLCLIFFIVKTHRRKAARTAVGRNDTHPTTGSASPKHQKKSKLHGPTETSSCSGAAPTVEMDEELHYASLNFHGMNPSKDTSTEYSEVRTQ
# assay_explanation: flow cytometry on HEK293-T, alanine scan
Please respond with reported Mean % WT Binding for every item in the list.
Numbers only, in % WT binding.

Some binders with recorded Mean % WT Binding:
Refmab #1 (antibody, V domains shown, The alanine scan used IgG or Fab; also called hP67.6) VH: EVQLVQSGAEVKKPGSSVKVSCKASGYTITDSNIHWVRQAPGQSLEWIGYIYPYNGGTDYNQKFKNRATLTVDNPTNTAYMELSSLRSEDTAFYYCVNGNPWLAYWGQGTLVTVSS VL: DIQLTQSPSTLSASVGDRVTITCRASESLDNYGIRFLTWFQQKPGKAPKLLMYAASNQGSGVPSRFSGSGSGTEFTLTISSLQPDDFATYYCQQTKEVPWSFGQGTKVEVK    85.8
Refmab #2 (antibody, V domains shown, The alanine scan used IgG or Fab) VH: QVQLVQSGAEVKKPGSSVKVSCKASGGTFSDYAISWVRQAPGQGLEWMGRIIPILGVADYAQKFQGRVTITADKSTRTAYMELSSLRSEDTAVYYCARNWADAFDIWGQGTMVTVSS VL: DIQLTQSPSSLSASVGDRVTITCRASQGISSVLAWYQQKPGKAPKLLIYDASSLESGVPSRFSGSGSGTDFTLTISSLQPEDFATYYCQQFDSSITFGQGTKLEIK    89.6
Refmab #3 (antibody, V domains shown, The alanine scan used IgG or Fab) VH: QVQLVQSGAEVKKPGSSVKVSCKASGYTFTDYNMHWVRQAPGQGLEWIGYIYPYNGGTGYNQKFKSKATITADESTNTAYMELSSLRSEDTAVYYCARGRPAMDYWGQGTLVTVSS VL: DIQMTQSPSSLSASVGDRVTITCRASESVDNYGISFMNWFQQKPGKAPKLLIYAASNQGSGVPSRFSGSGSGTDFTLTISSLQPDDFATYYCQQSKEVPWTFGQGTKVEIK    75.9

In the following, a different binder is considered.
What value of measured Mean % WT Binding is listed for Refmab #4 (antibody, V domains shown, The alanine scan used IgG or Fab) VH: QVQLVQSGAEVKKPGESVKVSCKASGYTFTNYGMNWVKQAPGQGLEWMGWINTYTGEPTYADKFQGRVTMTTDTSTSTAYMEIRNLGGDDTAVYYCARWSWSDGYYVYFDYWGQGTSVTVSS VL: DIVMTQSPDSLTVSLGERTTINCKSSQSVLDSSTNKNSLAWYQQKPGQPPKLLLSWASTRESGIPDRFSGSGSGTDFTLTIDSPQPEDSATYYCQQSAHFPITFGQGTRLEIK ? 73.6
